# protein stability index per entry
B1: ANKRD40 (parent)
chain: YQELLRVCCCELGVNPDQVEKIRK

# Variants of: B1
# procedure summary: protein stability index of a GFP-peptide fusion (GPS, HEK-293T) (PSI 1-6); higher = more stable;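 note: lentivirally expressed fusions sorted by FACS into six bins by GFP to DsRed ratio, PSI derived from sequencing read proportions per bin multiplied by bin number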
# condition description: c terminus: a fixed tail appended
Please reply with the value in numeric form only.

// worked examples, protein stability index included
[[record]]
sequence_string = "YQELLRVCCCELGVNPKQVEKIRK"
assay_value = 1.69

[[record]]
sequence_string = "YQELLRVCCCELGVNPDQVEKIRQ"
assay_value = 2.12


Which protein stability index is reported for this variant? YQELLRVCCCENGVNPDQVEKIRK 2.86

Now give it for YQELLRVCCCELGVNPDQNEKIRK too. 1.34

Now give it for YQELGRVCCCELGVNPDQVEKIRK too. 2.05
